Where do the numbers come from? From patent US10039753B2.

# TARGET_OR_SYSTEM: mutant G2019S LRRK2 (Homo sapiens, UniProt Q5S007, G2019S)
# Sequence (Q5S007 970-2527 G2019S limits assumed): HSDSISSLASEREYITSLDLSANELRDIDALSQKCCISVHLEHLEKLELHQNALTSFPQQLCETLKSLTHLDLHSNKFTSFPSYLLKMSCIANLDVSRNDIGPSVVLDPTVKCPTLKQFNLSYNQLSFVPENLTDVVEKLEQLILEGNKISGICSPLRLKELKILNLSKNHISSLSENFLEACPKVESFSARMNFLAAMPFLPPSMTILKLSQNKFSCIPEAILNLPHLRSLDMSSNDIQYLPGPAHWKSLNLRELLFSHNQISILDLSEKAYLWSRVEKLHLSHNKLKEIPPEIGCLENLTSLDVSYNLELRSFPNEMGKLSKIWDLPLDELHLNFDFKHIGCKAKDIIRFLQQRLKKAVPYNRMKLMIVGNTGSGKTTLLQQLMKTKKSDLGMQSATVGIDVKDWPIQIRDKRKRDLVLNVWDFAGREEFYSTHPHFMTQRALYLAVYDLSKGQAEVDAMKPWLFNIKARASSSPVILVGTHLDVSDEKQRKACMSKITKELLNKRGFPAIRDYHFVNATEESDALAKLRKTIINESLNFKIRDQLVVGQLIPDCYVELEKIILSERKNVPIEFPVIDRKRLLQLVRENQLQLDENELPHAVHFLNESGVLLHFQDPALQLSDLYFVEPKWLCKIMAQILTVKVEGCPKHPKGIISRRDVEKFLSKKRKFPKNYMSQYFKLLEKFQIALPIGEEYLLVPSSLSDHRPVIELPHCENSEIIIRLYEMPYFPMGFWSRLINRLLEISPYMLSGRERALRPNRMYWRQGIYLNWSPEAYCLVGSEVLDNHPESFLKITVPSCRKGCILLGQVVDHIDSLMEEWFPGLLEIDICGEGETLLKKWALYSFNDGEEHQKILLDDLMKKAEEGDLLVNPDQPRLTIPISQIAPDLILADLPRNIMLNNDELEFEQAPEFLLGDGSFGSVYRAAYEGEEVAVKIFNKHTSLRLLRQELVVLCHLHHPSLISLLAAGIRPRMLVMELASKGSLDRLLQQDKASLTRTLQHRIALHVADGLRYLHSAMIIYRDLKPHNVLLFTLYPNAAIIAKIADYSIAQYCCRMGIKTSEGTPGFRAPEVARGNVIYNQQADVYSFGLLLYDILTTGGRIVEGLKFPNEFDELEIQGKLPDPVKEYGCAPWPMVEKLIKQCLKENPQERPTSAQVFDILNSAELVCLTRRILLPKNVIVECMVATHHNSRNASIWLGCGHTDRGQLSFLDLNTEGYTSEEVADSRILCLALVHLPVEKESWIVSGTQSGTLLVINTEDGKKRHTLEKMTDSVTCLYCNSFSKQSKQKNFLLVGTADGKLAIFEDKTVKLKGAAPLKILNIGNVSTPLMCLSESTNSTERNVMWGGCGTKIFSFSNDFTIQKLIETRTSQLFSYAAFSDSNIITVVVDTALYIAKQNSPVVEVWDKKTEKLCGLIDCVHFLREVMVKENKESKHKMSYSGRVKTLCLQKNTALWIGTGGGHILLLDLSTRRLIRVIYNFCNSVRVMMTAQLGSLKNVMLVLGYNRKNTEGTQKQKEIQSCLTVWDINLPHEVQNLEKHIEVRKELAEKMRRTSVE
# TEST_PROTOCOL: LRRK2 Assay, Format 2 (Lantha Screen), G2019S mutant
# Assay type: biochemical
# Set-up: purchased Invitrogen PV4881
# TEST_CONDITIONS: geometric mean of 2-4 determinations unless otherwise indicated (a: >=5; b: single determination); read-out: LRRK2, Format 2 G2019S IC50
Where a name gives a salt, the structure may show the parent alone.
Please go through the items and note down their IC50.
Numbers only, in nM.

Sample records with IC50:
| COMPOUND | IC50 (nM) |
| --- | --- |
| Cc1ccc(Cc2nc3cnc4ccc(C#N)cc4c3n2[C@@H]2CCO[C@H](C)C2)nc1 [Example 232] | 7.26 |
| CC1(C)CC(n2c(Cn3cnnn3)nc3cnc4ccc(Cl)cc4c32)CCO1 (stereo not drawn) [Example 150, formate salt] | 12.1 |

# return recorded IC50 for input COc1cnn(Cc2nc3cnc4ccc(C#N)cc4c3n2CC(C)(F)F)c1 [Example 210]
7.63

---

# TARGET_OR_SYSTEM: mutant G2019S LRRK2 (Homo sapiens, UniProt Q5S007, G2019S)
# TEST_PROTOCOL: LRRK2 Assay, Format 1 (Lantha Screen), G2019S mutant
Where a name gives a salt, the structure may show the parent alone.
Label y when IC50 is strictly below 70 nM; at or above that, label n.

Take a look at these entries with their results.
| COMPOUND | GROUP_LABEL |
| --- | --- |
| Cc1nc2cnc3ccccc3c2n1[C@H]1CCO[C@@H](C)C1 (racemic) | n |
| COc1ccc2ncc3nc(Cc4cc(C)on4)n([C@@H]4CCO[C@H](C)C4)c3c2c1 (single isomer, unassigned) | y |
| COc1ccc(Cc2nc3cnc4ccc(Cl)cc4c3n2[C@@H]2CCO[C@H](C)C2)nc1 | y |
| COc1ccc(Cc2nc3cnc4ccc(F)cc4c3n2C2CCOC(C)(C)C2)nc1 (stereo not shown) | y |
| F[C@H]1CC[C@@H](n2c(Cc3ccon3)nc3cnc4ccccc4c32)C1 | n |

Consider the compound Cc1cc(Cc2nc3cnc4ccc(Cl)cc4c3n2C2CCOC(CC#N)C2)no1 (single isomer, unassigned; ent-2) [enantiomer of Example 134] . Is its IC50 strictly less than 70 nM?
n

Consider the compound Fc1ccc2ncc3nc(Cc4cscn4)n(C4CCOCC4)c3c2c1 [Example 77, trifluoroacetate salt] . Is its IC50 strictly less than 70 nM?
y

Consider the compound "C[C@@H]1C[C@H](n2c(Cc3cscn3)nc3cnc4ccc(Br)cc4c32)C[C@H](C)O1" . Is its IC50 strictly less than 70 nM?
y

Consider the compound Cc1nc(Cc2nc3cnc4ccc(Cl)cc4c3n2C2C[C@@H](C)[C@@H](F)C2)no1 (single isomer, unassigned) [Example 136] . Is its IC50 strictly less than 70 nM?
y

Consider the compound "Cc1cn2cc(Cc3nc4cnc5ccccc5c4n3C3CCOCC3)nc2s1" . Is its IC50 strictly less than 70 nM?
n

---

Please go through the items and note down their IC50.
# TARGET_OR_SYSTEM: mutant G2019S LRRK2 (Homo sapiens, UniProt Q5S007, G2019S)
# TEST_PROTOCOL: LRRK2 Assay, Format 2 (Lantha Screen), G2019S mutant
# Assay type: biochemical
# Parameters: purchased Invitrogen PV4881
# TEST_CONDITIONS: geometric mean of 2-4 determinations unless otherwise indicated (a: >=5; b: single determination); read-out: LRRK2, Format 2 G2019S IC50
Counter-ions that a name gives are not always drawn.
Answers are plain numbers, in nM.

Sample records with IC50:
| COMPOUND | IC50, nM |
| --- | --- |
| C[C@@H]1C[C@H](n2c(Cc3nc4ccccc4o3)nc3cnc4ccc(C#N)cc4c32)CCO1 [Example 153, formate salt] | 5.34 |
| C[C@@H]1C[C@H](n2c(Cn3cnnn3)nc3cnc4ccc(C#N)cc4c32)CCO1 [Example 124, formate salt] | 5.33 |
| Cc1cn(Cc2nc3cnc4ccc(C#N)cc4c3n2C2CCC(F)C2)nn1 (single isomer, unassigned; ent-1) | 26.1 |
| Cc1cc(Cc2nc3cnc4ccc(C#N)cc4c3n2CC(C)(F)F)no1 | 17.7 |
| Cc1cc(Cc2nc3cnc4ccc(C#N)cc4c3n2[C@H]2CC[C@@H](F)C2)no1 (single isomer, unassigned) [Example C66] | 42.2 |
| CCC(F)(F)Cn1c(Cc2cnccn2)nc2cnc3ccc(Cl)cc3c21 | 22.8 |

Hello, I would appreciate it if you could give IC50 for each entry below.
1. CO[C@H]1C[C@@H](n2c(Cn3cc(C)nn3)nc3cnc4ccc(Cl)cc4c32)C1
2. Cc1cnn(Cc2nc3cnc4ccc(C#N)cc4c3n2[C@H]2CCN(C)C2)c1

1. 30.8
2. 26.2

Hello, I would appreciate it if you could give IC50 for each entry below.
1. C[C@@H]1C[C@H](n2c(Cc3cc(C4CC4)on3)nc3cnc4ccc(C#N)cc4c32)CCO1
2. C[C@@H]1C[C@H](n2c(Cc3ccn(C)n3)nc3cnc4ccc(Cl)cc4c32)CCO1
3. CC(C)c1cc(Cc2nc3cnc4ccc(Br)cc4c3n2[C@@H]2CCO[C@H](C)C2)no1

7.33
7.25
5.35

---

# TARGET_OR_SYSTEM: GST-tagged truncated LRRK2 (Homo sapiens, UniProt Q5S007)
# Construct: GST-tagged truncated LRRK2 from Invitrogen (Cat # PV4874); GST; purchased Invitrogen PV4874
# Sequence (Q5S007 970-2527 limits assumed): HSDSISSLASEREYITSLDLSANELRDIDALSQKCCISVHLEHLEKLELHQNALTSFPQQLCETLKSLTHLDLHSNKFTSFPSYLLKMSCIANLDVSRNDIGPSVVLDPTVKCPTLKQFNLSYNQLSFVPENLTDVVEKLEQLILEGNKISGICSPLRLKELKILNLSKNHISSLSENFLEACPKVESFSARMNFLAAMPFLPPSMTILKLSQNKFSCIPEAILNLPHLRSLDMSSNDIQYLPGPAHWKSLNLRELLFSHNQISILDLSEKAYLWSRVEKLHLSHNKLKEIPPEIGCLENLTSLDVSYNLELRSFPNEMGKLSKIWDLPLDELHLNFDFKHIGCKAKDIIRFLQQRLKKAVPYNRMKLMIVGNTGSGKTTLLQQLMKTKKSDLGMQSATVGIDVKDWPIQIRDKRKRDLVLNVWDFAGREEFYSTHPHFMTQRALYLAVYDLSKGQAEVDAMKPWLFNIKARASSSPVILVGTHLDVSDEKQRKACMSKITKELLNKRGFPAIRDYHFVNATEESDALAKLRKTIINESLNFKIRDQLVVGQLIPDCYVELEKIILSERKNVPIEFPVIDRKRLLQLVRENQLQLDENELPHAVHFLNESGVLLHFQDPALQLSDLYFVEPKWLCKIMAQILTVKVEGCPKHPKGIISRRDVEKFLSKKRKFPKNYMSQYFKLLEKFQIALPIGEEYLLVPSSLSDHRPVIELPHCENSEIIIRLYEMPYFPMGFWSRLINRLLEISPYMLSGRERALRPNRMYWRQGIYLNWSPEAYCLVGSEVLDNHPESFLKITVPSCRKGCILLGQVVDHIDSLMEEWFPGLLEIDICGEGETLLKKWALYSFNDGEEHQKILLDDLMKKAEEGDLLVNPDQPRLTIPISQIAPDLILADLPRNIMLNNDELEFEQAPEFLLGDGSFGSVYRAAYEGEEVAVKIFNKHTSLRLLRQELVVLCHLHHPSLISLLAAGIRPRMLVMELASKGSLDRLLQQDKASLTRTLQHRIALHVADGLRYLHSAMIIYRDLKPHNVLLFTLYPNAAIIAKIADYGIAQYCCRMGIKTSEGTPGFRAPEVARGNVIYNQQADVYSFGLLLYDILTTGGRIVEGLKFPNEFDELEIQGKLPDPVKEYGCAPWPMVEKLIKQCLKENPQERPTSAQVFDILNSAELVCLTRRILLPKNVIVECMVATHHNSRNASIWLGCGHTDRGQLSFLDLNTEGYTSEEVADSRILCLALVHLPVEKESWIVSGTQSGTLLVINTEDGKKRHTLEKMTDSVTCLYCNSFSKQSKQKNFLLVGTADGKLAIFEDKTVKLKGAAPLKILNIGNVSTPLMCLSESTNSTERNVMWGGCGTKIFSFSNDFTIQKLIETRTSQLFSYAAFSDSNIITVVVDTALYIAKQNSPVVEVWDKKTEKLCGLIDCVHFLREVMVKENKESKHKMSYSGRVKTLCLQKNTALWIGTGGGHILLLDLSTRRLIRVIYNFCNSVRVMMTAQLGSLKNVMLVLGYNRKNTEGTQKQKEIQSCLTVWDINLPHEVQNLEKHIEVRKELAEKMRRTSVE
# TEST_PROTOCOL: LRRK2 Assay, Format 2 (Lantha Screen), WT
# Assay type: biochemical
# TEST_CONDITIONS: geometric mean of 2-4 determinations unless otherwise indicated (a: >=5; b: single determination)
Structures can show the parent of a compound that is named as a salt.
Please go through the items and note down their pIC50.
Answers are plain numbers, as −log10 of the molar value.

Sample records with pIC50:
| MOLECULE | pIC50 |
| --- | --- |
| C[C@@H]1C[C@H](n2c(Cc3ccn(C)n3)nc3cnc4ccc(Cl)cc4c32)CCO1 | 8.15 |
| Cc1cc(Cc2nc3cnc4ccc(C#N)cc4c3n2C2CCOC(C)(C)C2)no1 (stereo not drawn) [Example 239, formate salt] | 8.01 |
| CCc1cnn(Cc2nc3cnc4ccc(C#N)cc4c3n2CC(C)(F)F)c1 | 8.10 |

Hello, I would appreciate it if you could give pIC50 for each entry below.
1. CC(F)(F)Cn1c(Cn2cc(C(F)(F)F)cn2)nc2cnc3ccc(C#N)cc3c21
2. Cc1cc(Cc2nc3cnc4ccc(Cl)cc4c3n2[C@@H]2CCO[C@H](CO)C2)no1
3. Cc1cc(Cc2nc3cnc4ccc(C#N)cc4c3n2[C@H]2CCC[C@H]2F)no1 (racemic) [Example 245, formate salt]

1. 8.04
2. 7.85
3. 7.84

---

Please go through the items and note down their pIC50.
# TARGET_OR_SYSTEM: mutant G2019S LRRK2 (Homo sapiens, UniProt Q5S007, G2019S)
# TEST_PROTOCOL: LRRK2 Assay, Format 2 (Lantha Screen), G2019S mutant
# Format: biochemical
# Parameters: purchased Invitrogen PV4881
# TEST_CONDITIONS: geometric mean of 2-4 determinations unless otherwise indicated (a: >=5; b: single determination); read-out: LRRK2, Format 2 G2019S IC50
Counter-ions that a name gives are not always drawn.
Give bare numbers, as −log10 of the molar value.

| COMPOUND | pIC50 |
| --- | --- |
| C[C@@H]1C[C@H](n2c(Cn3cc(C(F)(F)F)nn3)nc3cnc4ccc(Cl)cc4c32)CCO1 [Example 99, formate salt] | 8.27 |
| C[C@@H]1C[C@H](n2c(Cc3cnco3)nc3cnc4ccc(C#N)cc4c32)CCO1 [Example 229, formate salt] | 8.03 |
| Cc1cn(Cc2nc3cnc4ccc(Cl)cc4c3n2C2CCOC(C)(C)C2)nn1 (centres unmarked) [Example 148, formate salt] | 7.87 |
| Cc1nn2cc(Cc3nc4cnc5ccc(C#N)cc5c4n3CC(C)(F)F)nc2s1 | 8.24 |
| C[C@@H]1C[C@H](n2c(C(F)(F)c3ccccn3)nc3cnc4ccc(Cl)cc4c32)CCO1 [Example 214, formate salt] | 8.01 |
| C[C@@H]1C[C@H](n2c(Cn3cc(C4CC4)nn3)nc3cnc4ccc(C#N)cc4c32)CCO1 [Example 125, formate salt] | 8.21 |
| C[C@@H]1C[C@H](n2c(Cc3cnco3)nc3cnc4ccc(Cl)cc4c32)CCO1 [Example 127, formate salt] | 8.10 |

Attention now shifts to the item below.
# return recorded pIC50 for input Cc1cnn(Cc2nc3cnc4ccc(C#N)cc4c3n2[C@H]2CC[C@@H](F)C2)c1 (single isomer, unassigned) [Example 94]
8.22
